Source of measurements: patent US20120295982A1

- experiment notes: Phase I open-label single-dose crossover oral bioavailability / PK test of bedoradrine sulfate in healthy volunteers
- Format: in vivo, human
- condition description: both sexes, human, in vivo, po, 600 ug, Cmax, range
Structures can show the parent of a compound that is named as a salt.
measurement name: Cmax

* CN(C)C(=O)COc1ccc2c(c1)C[C@@H](NC[C@H](O)c1ccc(O)c(CCO)c1)CC2 [MN-221, bedoradrine sulfate] | 0.163 to 0.5 ng/mL

====

- experiment notes: Phase I open-label single-dose crossover oral bioavailability / PK test of bedoradrine sulfate in healthy volunteers
- Assay type: in vivo, human
- condition description: both sexes, human, in vivo, iv, 300 ug, Vss, range
Structures can show the parent of a compound that is named as a salt.
measurement name: Vd

• CN(C)C(=O)COc1ccc2c(c1)C[C@@H](NC[C@H](O)c1ccc(O)c(CCO)c1)CC2 [MN-221, bedoradrine sulfate] = 149 to 325 L
